Property: MCF7 pHER3 % inhibition; scope: individual binders
experimental.target: Human HER3, endogenous, on human cancer cell lines (SK-Br-3, MCF7, BT-474) (human, UniProt P21860 20-1342)
Sequence (P21860 20-1342): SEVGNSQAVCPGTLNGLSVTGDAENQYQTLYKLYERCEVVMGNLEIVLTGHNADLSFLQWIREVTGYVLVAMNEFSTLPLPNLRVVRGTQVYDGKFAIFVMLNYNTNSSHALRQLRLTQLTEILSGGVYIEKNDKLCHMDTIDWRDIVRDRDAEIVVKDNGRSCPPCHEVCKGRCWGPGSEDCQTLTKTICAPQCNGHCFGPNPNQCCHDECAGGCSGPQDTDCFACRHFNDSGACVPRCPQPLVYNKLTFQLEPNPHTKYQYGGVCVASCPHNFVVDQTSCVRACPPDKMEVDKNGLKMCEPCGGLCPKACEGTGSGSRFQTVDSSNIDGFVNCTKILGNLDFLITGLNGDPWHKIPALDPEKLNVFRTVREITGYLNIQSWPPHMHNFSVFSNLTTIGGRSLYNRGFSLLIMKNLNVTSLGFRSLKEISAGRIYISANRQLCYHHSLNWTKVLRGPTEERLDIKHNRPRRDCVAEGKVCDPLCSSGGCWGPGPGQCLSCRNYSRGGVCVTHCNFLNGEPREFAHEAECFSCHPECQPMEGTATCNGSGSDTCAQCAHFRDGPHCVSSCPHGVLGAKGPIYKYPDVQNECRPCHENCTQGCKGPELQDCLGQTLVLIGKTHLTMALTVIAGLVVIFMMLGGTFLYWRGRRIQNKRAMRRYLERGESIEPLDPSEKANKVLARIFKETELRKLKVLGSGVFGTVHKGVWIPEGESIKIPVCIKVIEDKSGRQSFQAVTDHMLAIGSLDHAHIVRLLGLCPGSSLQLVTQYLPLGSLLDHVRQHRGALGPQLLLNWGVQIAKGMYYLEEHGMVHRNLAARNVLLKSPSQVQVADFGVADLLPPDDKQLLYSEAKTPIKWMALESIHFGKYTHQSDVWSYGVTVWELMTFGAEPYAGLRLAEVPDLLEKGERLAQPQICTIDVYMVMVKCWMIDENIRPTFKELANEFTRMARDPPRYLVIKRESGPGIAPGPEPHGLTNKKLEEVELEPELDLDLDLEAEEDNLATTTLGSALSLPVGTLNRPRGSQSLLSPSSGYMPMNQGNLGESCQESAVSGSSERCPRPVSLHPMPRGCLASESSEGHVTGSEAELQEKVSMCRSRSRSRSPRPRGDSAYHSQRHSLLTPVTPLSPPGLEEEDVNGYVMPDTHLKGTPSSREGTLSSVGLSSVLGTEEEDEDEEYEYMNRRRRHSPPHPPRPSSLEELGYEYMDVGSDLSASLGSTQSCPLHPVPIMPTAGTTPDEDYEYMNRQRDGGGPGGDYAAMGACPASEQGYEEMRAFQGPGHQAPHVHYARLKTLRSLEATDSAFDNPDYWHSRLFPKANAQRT
protocol: cell-based or functional assay
Kindly provide the numeric value in % only, without the unit symbol.

Below, 2 binders whose answers are already recorded.
{"columns": ["binder", "obs.value"],
 "data": [
  ["MOR13868 (antibody, human IgG1, kappa, V domains shown, tested as IgG) VH: QVQLVQSGAEVKKPGESLKISCKGSGYSFSNYWIAWVRQMPGKGLEWMGIIYPGLSDTIYSPSFQGQVTISADKSISTAYLQWSSLKASDTAMYYCARVHIIQPPSAWSYNAMDVWGQGTLVTVSS VL: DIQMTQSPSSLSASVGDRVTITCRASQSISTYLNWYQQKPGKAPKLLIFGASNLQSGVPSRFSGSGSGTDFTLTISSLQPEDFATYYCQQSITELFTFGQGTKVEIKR", 75],
  ["MOR14536 (antibody, human IgG1, kappa, V domains shown, tested as IgG) VH: EVQLVQSGAEVKKPGESLKISCKGSGYSFSNYWIAWVRQMPGKGLEWMGIIYPGQSDTIYSPSFQGQVTISADKSISTAYLQWSSLKASDTAMYYCARVHIIQPPSAWSYNAMDVWGQGTLVTVSS VL: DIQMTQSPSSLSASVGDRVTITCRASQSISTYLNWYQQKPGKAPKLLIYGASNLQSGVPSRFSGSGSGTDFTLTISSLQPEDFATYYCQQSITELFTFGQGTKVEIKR", 83]
]}

# evaluate next
input: Could you share which MCF7 pHER3 % inhibition value was measured for MOR13759 (antibody, human IgG1, kappa, V domains shown, tested as IgG) VH: QVQLVQSGAEVKKPGESLKISCKGSGYSFTTTWVAWVRQMPGKGLEWMGIIYPGLSDTIYSPSFQGQVTISADKSISTAYLQWSSLKASDTAMYYCARVHIIQPPSAWSYNAMDVWGQGTLVTVSS VL: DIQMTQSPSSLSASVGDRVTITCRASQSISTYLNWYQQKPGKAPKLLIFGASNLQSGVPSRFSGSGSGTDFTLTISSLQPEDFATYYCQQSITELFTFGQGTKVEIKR ?
output: 74
